# Tested on: Raji
# ASSAY_OVERVIEW: Inhibition of TPA-induced EBV-early antigen activation in human Raji cells assessed as remaining activity at 100 molar ratio per TPA after 48 hrs by immunofluorescence method relative to TPA
# Assay type: cell-based
# STATED_CONDITIONS: human gammaherpesvirus 4
EXPERIMENTAL_READOUT: Activity (%)

# MOL_SMILES, UNIT_DESCRIPTOR, REPORTED_MEASUREMENT
measured = [
    ("CC(=O)O[C@@H]1[C@H](O)[C@@H](C)[C@]23OC(C)(C)[C@H]([C@H](OC(C)=O)[C@H](OC(=O)c4ccccc4)[C@]2(C)[C@H]1OC(=O)c1ccccc1)[C@H]3O", "%", 76.3),
    ("CC(=O)O[C@@H]1[C@H](O)[C@@H](C)[C@]23OC(C)(C)[C@H]([C@H](OC(C)=O)[C@H](OC(=O)c4ccccc4)[C@]2(C)[C@H]1OC(=O)c1ccccc1)[C@H]3OC(C)=O", "%", 79.5),
    ("CC(=O)O[C@@H]1[C@H](O)[C@@H](C)[C@]23OC(C)(C)[C@H](C[C@H](OC(=O)c4ccccc4)[C@]2(C)[C@H]1OC(=O)c1ccccc1)[C@H]3OC(C)=O", "%", 81),
    ("CC(=O)O[C@H]1[C@@H]2C[C@@]3(OC2(C)C)[C@](C)([C@H]1OC(=O)c1ccccc1)[C@@H](OC(=O)c1ccccc1)[C@H](OC(C)=O)[C@H](OC(C)=O)[C@]3(C)O", "%", 79.3),
    ("CC(=O)O[C@@H]1[C@H](O)[C@@H](C)[C@]23OC(C)(C)[C@H]([C@H](OC(C)=O)[C@H](OC(=O)c4ccccc4)[C@]2(C)[C@H]1OC(=O)c1ccoc1)[C@H]3OC(C)=O", "%", 87),
    ("CC(=O)O[C@H]1[C@H](OC(=O)c2ccccc2)C[C@](C)(O)[C@]23OC(C)(C)[C@H](C[C@H](OC(=O)c4ccco4)[C@]12CO)[C@H]3OC(=O)c1ccccc1", "%", 82.2),
]
